Molecular target: human MC4R (Homo sapiens, UniProt P32245)
Construct: expressed in transfected cells
Sequence (P32245 whole entry): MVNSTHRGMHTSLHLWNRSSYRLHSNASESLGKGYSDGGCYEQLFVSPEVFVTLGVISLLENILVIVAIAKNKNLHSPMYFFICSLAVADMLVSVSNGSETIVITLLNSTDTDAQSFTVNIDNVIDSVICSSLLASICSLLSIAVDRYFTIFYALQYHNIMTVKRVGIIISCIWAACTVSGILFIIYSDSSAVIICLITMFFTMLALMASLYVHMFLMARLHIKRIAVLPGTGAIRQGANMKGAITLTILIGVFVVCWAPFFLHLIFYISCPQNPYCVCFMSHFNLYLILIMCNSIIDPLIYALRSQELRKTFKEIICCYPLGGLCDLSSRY
Assay: 125NDP-α-MSH competitive binding to membranes of BHK cells expressing human MC4 receptor (filtration assay)
Conditions: human MC4R, BHK cell membranes, 125NDP-α-MSH radioligand; read-out: MC4R binding Ki
pKi: −log10 of the molar value. Positions of bridges follow the written chain, without caps; N, C: chain ends. Non-standard residues stand in square brackets, D forms with d. Residues, ends and D or L forms follow the SMILES beside them. Hyp = O=C(O)[C@@H]1C[C@@H](O)CN1; Aib = CC(C)(N)C(=O)O
measurementType: pKi

compound: CC1(C)NC(=O)[C@@H]2CSSC[C@H](NC(=O)[C@H](Cc3c[nH]c4ccccc34)NC(=O)[C@H](CCCNC(=N)N)NC(=O)[C@@H](Cc3ccccc3)NC(=O)[C@@H]3C[C@@H](O)CN3C1=O)C(=O)NC(C)(C)C(=O)N1C[C@H](O)C[C@H]1C(=O)N[C@H](Cc1ccccc1)C(=O)N[C@@H](CCCNC(=N)N)C(=O)N[C@@H](Cc1c[nH]c3ccccc13)C(=O)N2 [Chem. 38] (cyclo([Aib][Hyp][dF]RWC[Aib][Hyp][dF]RWC); disulfide 6-12)
measurementType: pKi
reported: 8.25

----------
MC1R/MC4R cAMP EC50 ratio reference
Biological target: human MC4R (Homo sapiens)
Construct: expressed in transfected cells
Experiment: Functional cAMP assay (CisBio HTRF) in BHK cells expressing human MC4R
Assay type: cell-based
Settings: MC1R cAMP EC50 divided by MC4R cAMP EC50
Starred links: 1 amine or outer side, 2 acyl side, 3 side chain; linkers in the order of their positions; H or OH if unused. Positions of bridges follow the written chain, without caps; N, C: chain ends. Non-standard residues stand in square brackets, D forms with d. Residues, ends and D or L forms follow the SMILES beside them. d(hCys) = N[C@H](CCS)C(=O)O; X1 = C(CN[*:2])CS[*:1]
measurementType: MC1R/MC4R cAMP EC50 ratio

molecule: C[C@@H]1NC(=O)[C@@H]2CSSC[C@H](NC(=O)[C@H](Cc3c[nH]c4ccccc34)NC(=O)[C@H](CCCNC(=N)N)NC(=O)[C@@H](Cc3ccccc3)NC(=O)[C@H](Cc3c[nH]cn3)NC1=O)C(=O)N[C@@H](CCCCN)C(=O)N[C@@H](CCCCN)C(=O)N[C@@H](CCCCN)C(=O)N[C@@H](CCCNC(=N)N)C(=O)N2 [Chem. 101] (cyclo(AH[dF]RWCKKKRC); disulfide 6-11)
reported: 5
--
molecule: CC(=O)N[C@@H](Cc1c[nH]cn1)C(=O)N[C@H](Cc1ccccc1)C(=O)N[C@@H](CCCNC(=N)N)C(=O)N[C@@H](Cc1c[nH]c2ccccc12)C(=O)N[C@H](C)C(=O)N[C@@H]1CCSSCCCNC(=O)[C@@H](C)NC(=O)[C@H](Cc2c[nH]c3ccccc23)NC(=O)[C@H](CCCNC(=N)N)NC(=O)[C@@H](Cc2ccccc2)NC(=O)[C@H](Cc2c[nH]cn2)NC1=O [Chem. 6] (Ac-H[dF]RW[dA][d(hCys)]H[dF]RW[dA]; linker 6-C via X1)
reported: 39
--
molecule: CC(=O)N[C@@H](C)C(=O)N[C@@H](Cc1c[nH]cn1)C(=O)N[C@H](Cc1ccccc1)C(=O)N[C@@H](CCCNC(=N)N)C(=O)N[C@@H](Cc1c[nH]c2ccccc12)C(=O)N[C@@H]1CCSSCCCNC(=O)[C@H](Cc2c[nH]c3ccccc23)NC(=O)[C@H](CCCNC(=N)N)NC(=O)[C@@H](Cc2ccccc2)NC(=O)[C@H](Cc2c[nH]cn2)NC(=O)[C@H](C)NC1=O [Chem. 3] (Ac-AH[dF]RW[d(hCys)]AH[dF]RW; linker 6-C via X1)
reported: 28
--
molecule: NCCCC[C@@H]1NC(=O)[C@H](CCCCN)NC(=O)[C@@H]2CSSC[C@H](NC(=O)[C@H](Cc3c[nH]c4ccccc34)NC(=O)[C@H](CCCCN)NC(=O)[C@H](CCCCN)NC1=O)C(=O)N1CCC[C@H]1C(=O)N[C@@H](Cc1c[nH]cn1)C(=O)N[C@H](Cc1ccccc1)C(=O)N[C@@H](Cc1c[nH]cn1)C(=O)N[C@@H](Cc1c[nH]c3ccccc13)C(=O)N2 [Chem. 75] (cyclo(CKKKKWCPH[dF]HW); disulfide 1-7)
reported: 155

----------
MC1R/MC4R cAMP EC50 ratio reference
Target: human MC4R (Homo sapiens, UniProt P32245)
Construct: expressed in transfected cells
Test: Functional cAMP assay (CisBio HTRF) in BHK cells expressing human MC4R
Type: cell-based
Settings: MC1R cAMP EC50 divided by MC4R cAMP EC50
Procedure: In order to assess the potency of the compounds on human MC1R and human MC4R cAMP signalling was measured. cAMP induction was measured by c-AMPdynamic2 assay, HTRF 62AM4PEC system from CisBio for the human MC1R and human MC4R according to the protocol provided by the vendor. BHK cells expressing the human MC1 or MC4 receptor were generated by stable transfection with expression vectors encoding the cDNA of either MC1R or MC4R. […]
Positions of bridges follow the written chain, without caps; N, C: chain ends. Non-standard residues stand in square brackets, D forms with d. Residues, ends and D or L forms follow the SMILES beside them. Thz = O=C(O)[C@@H]1CSCN1
measurementType: MC1R/MC4R cAMP EC50 ratio

compound: C[C@@H]1NC(=O)[C@H](C)NC(=O)[C@@H]2CSSC[C@H](NC(=O)[C@H](Cc3c[nH]c4ccccc34)NC(=O)[C@H](C)NC(=O)[C@@H](C)NC1=O)C(=O)N[C@@H](C)C(=O)N[C@@H](Cc1c[nH]cn1)C(=O)N[C@H](Cc1ccccc1)C(=O)N[C@@H](CCCNC(=N)N)C(=O)N[C@@H](Cc1c[nH]c3ccccc13)C(=O)N2 [Chem. 88] (cyclo(AA[dA]AWCAH[dF]RWC); disulfide 6-12)
measuredTarget: human MC4R (Homo sapiens, UniProt P32245)
measurementType: MC1R/MC4R cAMP EC50 ratio
reported: 66
--
compound: NCCCC[C@H]1NC(=O)[C@@H]2CSSC[C@H](NC(=O)[C@H](Cc3c[nH]c4ccccc34)NC(=O)[C@H](Cc3c[nH]cn3)NC(=O)[C@@H](Cc3ccccc3)NC(=O)[C@H](Cc3c[nH]cn3)NC1=O)C(=O)N[C@H](CCCCN)C(=O)N[C@@H](Cc1c[nH]cn1)C(=O)N[C@H](Cc1ccccc1)C(=O)N[C@@H](Cc1c[nH]cn1)C(=O)N[C@@H](Cc1c[nH]c3ccccc13)C(=O)N2 [Chem. 86] (cyclo(C[dK]H[dF]HWC[dK]H[dF]HW); disulfide 1-7)
measuredTarget: human MC4R (Homo sapiens, UniProt P32245)
measurementType: MC1R/MC4R cAMP EC50 ratio
reported: 10
--
compound: C[C@@H]1NC(=O)[C@@H]2CSSC[C@H](NC(=O)[C@H](Cc3c[nH]c4ccccc34)NC(=O)[C@H](CCCNC(=N)N)NC(=O)[C@@H](Cc3ccccc3)NC(=O)[C@H](Cc3c[nH]cn3)NC1=O)C(=O)N[C@@H](C)C(=O)N[C@@H](CCCCN)C(=O)N[C@@H](CCCCN)C(=O)N[C@@H](CCCCN)C(=O)N[C@@H](CCCNC(=N)N)C(=O)N2 [Chem. 59] (cyclo(AH[dF]RWCAKKKRC); disulfide 6-12)
measuredTarget: human MC4R (Homo sapiens, UniProt P32245)
measurementType: MC1R/MC4R cAMP EC50 ratio
reported: 40
--
compound: C[C@@H]1NC(=O)[C@H](CCCCN)NC(=O)[C@H](CCCCN)NC(=O)[C@H](C)NC(=O)[C@@H]2CSSC[C@H](NC(=O)[C@H](Cc3c[nH]c4ccccc34)NC1=O)C(=O)N1CSC[C@H]1C(=O)N[C@@H](Cc1c[nH]cn1)C(=O)N[C@H](Cc1ccccc1)C(=O)N[C@@H](Cc1c[nH]cn1)C(=O)N[C@@H](Cc1c[nH]c3ccccc13)C(=O)N2 [Chem. 110] (cyclo(AKKAWC[Thz]H[dF]HWC); disulfide 6-12)
measuredTarget: human MC4R (Homo sapiens, UniProt P32245)
measurementType: MC1R/MC4R cAMP EC50 ratio
reported: 1266
--
compound: C[C@@H]1NC(=O)[C@@H]2CSSC[C@H](NC(=O)[C@H](Cc3c[nH]c4ccccc34)NC(=O)[C@H](CCCNC(=N)N)NC(=O)[C@@H](Cc3ccccc3)NC(=O)[C@H](Cc3c[nH]cn3)NC1=O)C(=O)N1CCC[C@H]1C(=O)N1CCC[C@H]1C(=O)N[C@@H](CCC(=O)O)C(=O)N[C@@H](CCCNC(=N)N)C(=O)N[C@@H](Cc1c[nH]c3ccccc13)C(=O)N2 [Chem. 112] (cyclo(AH[dF]RWCPPERWC); disulfide 6-12)
measuredTarget: human MC4R (Homo sapiens, UniProt P32245)
measurementType: MC1R/MC4R cAMP EC50 ratio
reported: 159
